Value source: patent US12686689B2

Target: HPK1 (Homo sapiens)
Sequence (Q92918 whole entry): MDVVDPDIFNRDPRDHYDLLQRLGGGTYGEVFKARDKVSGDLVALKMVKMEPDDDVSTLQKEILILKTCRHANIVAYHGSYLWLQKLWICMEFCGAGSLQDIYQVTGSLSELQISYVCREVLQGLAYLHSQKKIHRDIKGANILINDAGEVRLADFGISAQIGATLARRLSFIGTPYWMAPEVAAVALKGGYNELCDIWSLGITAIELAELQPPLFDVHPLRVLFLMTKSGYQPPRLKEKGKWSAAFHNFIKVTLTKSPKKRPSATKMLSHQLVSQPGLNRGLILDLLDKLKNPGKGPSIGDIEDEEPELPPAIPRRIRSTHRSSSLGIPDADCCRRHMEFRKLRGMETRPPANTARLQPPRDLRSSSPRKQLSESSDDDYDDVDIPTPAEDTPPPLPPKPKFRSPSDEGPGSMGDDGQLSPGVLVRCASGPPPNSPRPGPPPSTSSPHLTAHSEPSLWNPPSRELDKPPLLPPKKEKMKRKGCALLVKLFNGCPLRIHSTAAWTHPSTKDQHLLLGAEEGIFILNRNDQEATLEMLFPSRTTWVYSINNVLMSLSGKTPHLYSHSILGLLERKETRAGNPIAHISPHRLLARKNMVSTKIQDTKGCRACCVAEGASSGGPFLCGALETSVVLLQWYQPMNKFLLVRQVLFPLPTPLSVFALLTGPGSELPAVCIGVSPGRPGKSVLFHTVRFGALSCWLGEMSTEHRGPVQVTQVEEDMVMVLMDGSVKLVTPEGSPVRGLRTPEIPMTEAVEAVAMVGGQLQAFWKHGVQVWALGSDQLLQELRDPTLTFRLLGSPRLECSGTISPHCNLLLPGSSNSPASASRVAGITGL
Reported values of IC50 for individual entries

Record excerpt, results attached:
COc1cccc(F)c1-c1cc2c(-c3ccc4c(c3)OCC3CN(C)CCN43)n[nH]c2cn1 (stereo not shown) ... ≤ 10 nM
CCNCc1cc(F)c(-c2cc3c(-c4ccc5c(c4)OCC4CN(C)CCN54)n[nH]c3cc2C#N)c(F)c1 (stereo not shown) ... ≤ 10 nM

Let me check: CNCc1cc(C)c(-c2cc3c(-c4ccc5c(c4)OCC4CN(C)CCN54)c[nH]c3cc2C#N)c(F)c1 (stereo not shown) , system HPK1 (Homo sapiens), measured IC50 is ≤ 10 nM

Let me check: CN1CCN2c3ccc(-c4n[nH]c5cnc(-c6c(F)cccc6F)cc45)cc3OCC2C1 (stereo not shown) , system HPK1 (Homo sapiens), measured IC50 is 10 to 100 nM

Let me check: CN(C)CCCOc1ccc(-c2c[nH]c3ncc(-c4ccc5c(c4)OCC4CN(C)CCN54)cc23)cc1 (stereo not shown) , system HPK1 (Homo sapiens), measured IC50 is ≤ 10 nM

Let me check: CNCc1cc(F)c(-c2ccc3[nH]nc(-c4ccc5c(c4)OCC4CN(C)CCN54)c3n2)c(F)c1 (stereo not shown) , system HPK1 (Homo sapiens), measured IC50 is 10 to 100 nM

Let me check: CN1CCN2c3ccc(-c4n[nH]c5cc(C#N)c(-c6cnc7ccnn7c6)cc45)cc3OCC2C1 (stereo not shown) , system HPK1 (Homo sapiens), measured IC50 is ≤ 10 nM

---

Target: UniProt:Q92918
Reported values of IC50 for individual entries

Cc1ccncc1-c1cc2c(-c3ccc4c(c3)OCC3CN(C)CCN43)n[nH]c2cn1 (stereo not drawn) ... ≤ 10 nM
CN1CCN2c3ccc(-c4n[nH]c5cc(C#N)c(-c6cccn7ccnc67)cc45)cc3OCC2C1 (stereo not drawn) ... ≤ 10 nM

Reported IC50 for CNCc1cc(F)c(-c2cc3c(-c4ccc5c(c4)OCC4CN(C)CCN54)n[nH]c3cn2)c(F)c1 (stereo not drawn) was ≤ 10 nM

Reported IC50 for CNCc1cc(F)c(-c2ncc3[nH]nc(-c4ccc5c(c4)OCC4CN(C)CCN54)c3n2)c(F)c1 (stereo not drawn) was 10 to 100 nM

Reported IC50 for CN1CCN2c3ccc(-c4n[nH]c5cc(C#N)c(-c6cnc7c(c6)ncn7C)cc45)cc3OCC2C1 (stereo not drawn) was ≤ 10 nM

Reported IC50 for COc1ccc(F)c(F)c1-c1cc2c(-c3ccc4c(c3)OCC3CN(C)CCN43)n[nH]c2cn1 (stereo not drawn) was 10 to 100 nM

---

A set of molecules tested on HPK1 (Homo sapiens), with measured IC50:

Record excerpt, results attached:
CN1CCN2c3ccc(-c4n[nH]c5cnc(-c6cnn7ccccc67)cc45)cc3OCC2C1 (stereo not drawn) [Compound 78] ... ≤ 10 nM
CN1CCN2c3ccc(-c4n[nH]c5cc(C#N)c(-c6cccc(NS(C)(=O)=O)c6F)cc45)cc3OCC2C1 (stereo not drawn) [Compound 11] ... 10 to 100 nM
CNCc1cc(C)c(-c2ncc3[nH]cc(-c4ccc5c(c4)OCC4CN(C)CCN54)c3n2)c(F)c1 (stereo not drawn) [Compound 95] ... ≤ 10 nM

Reported IC50 for CN1CCN2c3ccc(-c4cnc5[nH]cc(-c6ccc(C(=O)N7CC(O)C7)cc6)c5c4)cc3OCC2C1 (stereo not drawn) [Compound 104] was 10 to 100 nM

Reported IC50 for CNCc1cc(C)c(-c2cc3c(-c4ccc5c(c4)OCC4CN(C6COC6)CCN54)n[nH]c3cc2C#N)c(F)c1 (stereo not drawn) [Compound 126] was ≤ 10 nM

---

A set of compounds tested on HPK1 (Homo sapiens), with measured pIC50:
pIC50: −log10 of the molar value.

Record excerpt, results attached:
CNCc1cc(F)c(-c2nc3c(-c4ccc5c(c4)OCC4CN(C)CCN54)n[nH]c3cc2C#N)c(F)c1 (stereo not shown) ... ≥ 8.00
CN1CCN2c3ccc(-c4n[nH]c5cc(C#N)c(-c6cnc7nccnc7c6)cc45)cc3OCC2C1 (stereo not shown) ... ≥ 8.00
CNCc1cc(F)c(-c2ncc3[nH]cc(-c4ccc5c(c4)OCC4CN(C)CCN54)c3n2)c(F)c1 (stereo not shown) ... 7.00 to 8.00
CN1CCN2c3ccc(-c4n[nH]c5cc(C#N)c(-c6c(F)cc(CC#N)cc6F)cc45)cc3OCC2C1 (stereo not shown) ... ≥ 8.00
COc1ccc(F)c(F)c1-c1cc2c(-c3ccc4c(c3)OCC3CN(C)CCN43)n[nH]c2cc1C#N (stereo not shown) ... ≥ 8.00
CNCc1cc(C)c(-c2cc3c(-c4ccc5c(c4)OCC4CN(C)CCN54)n[nH]c3cc2C#N)c(F)c1 (stereo not shown) ... ≥ 8.00

Let me check: CNCc1cc(C)c(-c2cc3c(-c4ccc5c(c4)OCC4CNCCN54)n[nH]c3cc2C#N)c(F)c1 (stereo not shown) , system HPK1 (Homo sapiens), measured pIC50 is ≥ 8.00

Let me check: CN1CCN2c3ccc(-c4n[nH]c5cc(C#N)c(-c6cccc(C(=O)NCc7ccncc7)c6F)cc45)cc3OCC2C1 (stereo not shown) , system HPK1 (Homo sapiens), measured pIC50 is ≥ 8.00

Let me check: CN1CCN2c3ccc(-c4n[nH]c5cc(C#N)c(-c6c(F)cc(OC(=O)N(C)C)cc6F)cc45)cc3OCC2C1 (stereo not shown) , system HPK1 (Homo sapiens), measured pIC50 is 7.00 to 8.00

Let me check: CN1CCN2c3ccc(-c4n[nH]c5cc(C#N)c(-c6ccccc6F)cc45)cc3OC[C@H]2C1 , system HPK1 (Homo sapiens), measured pIC50 is ≥ 8.00
